B1: GLTSCR2 (parent)
chain: LARRRRRRQARREAEADKPRRLGR

- Variants of: B1
- experiment: protein stability index of a GFP-peptide fusion (GPS, HEK-293T) (PSI 1-6); higher = more stable;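 note: lentivirally expressed fusions sorted by FACS into six bins by GFP to DsRed ratio, PSI derived from sequencing read proportions per bin multiplied by bin number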
- run.parameters: c terminus: a fixed tail appended
assay.readout: protein stability index
Lab note: jot down the number only; don't add units.

E15F
4.36
R8W
4.48
P19D
4.91

Looking up "R7C" , I found its protein stability index recorded as 4.83

Looking up "L22M" , I found its protein stability index recorded as 4.74
